The reader will find reported IC50 values listed item by item below.
# Test system: Blood
# ASSAY_OVERVIEW: Inhibition of LPS-induced TNFalpha production in human whole blood preincubated for 1 hrs before LPS challenge measured after 4 hrs by ELISA
# Assay type: functional, tissue-based
RECORDED_METRIC: IC50 (nM)

structure=CC#CCOc1ccc(S(=O)(=O)CC2(C(=O)NO)CCN(C(=O)OC(C)(C)C)CC2)cc1 recorded_metric=IC50 reported_value=14000
structure=CC(=O)N1CCC(C(=O)NO)(S(=O)(=O)c2ccc(OCc3cc(C)nc4ccccc34)cc2)CC1 recorded_metric=IC50 reported_value=1500
structure=Cc1cc(COc2ccc(S(=O)(=O)C3(C(=O)NO)CCN(S(C)(=O)=O)CC3)cc2)c2ccccc2n1 recorded_metric=IC50 reported_value=2800
structure=Cc1cc(COc2ccc(S(=O)(=O)C3(C(=O)NO)CCN(S(=O)(=O)C(C)C)CC3)cc2)c2ccccc2n1 recorded_metric=IC50 reported_value=14000
structure=Cc1cc(COc2ccc(S(=O)(=O)C3(C(=O)NO)CCNCC3)cc2)c2ccccc2n1 recorded_metric=IC50 reported_value=2400

----------
# Species: Homo sapiens
# ASSAY_OVERVIEW: Selectivity ratio of IC50 for human recombinant MMP2 catalytic domain to IC50 for human TACE catalytic domain
Ratio IC50 listing for selected compounds.
RECORDED_METRIC: Ratio IC50

structure=Cc1cc(COc2ccc(S(=O)(=O)C3(C(=O)NO)CCN(S(=O)(=O)C(C)C)CC3)cc2)c2ccccc2n1 reported_value="> 90"
structure=Cc1cc(COc2ccc(S(=O)(=O)C3(C(=O)NO)CCNCC3)cc2)c2ccccc2n1 reported_value="> 90"
structure=Cc1cc(COc2ccc(S(=O)(=O)C3(C(=O)NO)CCN(C(=O)C(C)C)CC3)cc2)c2ccccc2n1 reported_value="> 90"
structure=Cc1cc(COc2ccc(S(=O)(=O)C3(C(=O)NO)CCN(C=O)CC3)cc2)c2ccccc2n1 reported_value="> 90"
structure=CC#CCOc1ccc(S(=O)(=O)CC2(C(=O)NO)CCNCC2)cc1 reported_value="> 1000"

----------
IC50 reference
# TARGET_DESC: Collagenase 3 (Homo sapiens)
# ASSAY_OVERVIEW: inhibition of human recombinant MMP13 catalytic domain
RECORDED_METRIC: IC50 (nM)

structure=Cc1cc(COc2ccc(S(=O)(=O)C3(C(=O)NO)CCN(C(=O)C(C)C)CC3)cc2)c2ccccc2n1 unit_abbreviation=nM reported_value=415
structure=Cc1cc(COc2ccc(S(=O)(=O)C3(C(=O)NO)CCN(C)CC3)cc2)c2ccccc2n1 unit_abbreviation=nM reported_value=1450
structure=Cc1cc(COc2ccc(S(=O)(=O)C3(C(=O)NO)CCN(S(C)(=O)=O)CC3)cc2)c2ccccc2n1 unit_abbreviation=nM reported_value=393
structure=Cc1cc(COc2ccc(S(=O)(=O)C3(C(=O)NO)CCN(Cc4ccncc4)CC3)cc2)c2ccccc2n1 unit_abbreviation=nM reported_value=266
structure=CC(=O)N1CCC(C(=O)NO)(S(=O)(=O)c2ccc(OCc3cc(C)nc4ccccc34)cc2)CC1 unit_abbreviation=nM reported_value=1340
structure=Cc1cc(COc2ccc(S(=O)(=O)C3(C(=O)NO)CCN(C(=O)OC(C)(C)C)CC3)cc2)c2ccccc2n1 unit_abbreviation=nM reported_value=1110
structure=CCNC(=O)N1CCC(C(=O)NO)(S(=O)(=O)c2ccc(OCc3cc(C)nc4ccccc34)cc2)CC1 unit_abbreviation=nM reported_value=835
structure=Cc1cc(COc2ccc(S(=O)(=O)C3(C(=O)NO)CCN(C(=O)c4ccncc4)CC3)cc2)c2ccccc2n1 unit_abbreviation=nM reported_value=349
structure=CC#CCOc1ccc(S(=O)(=O)CC2(C(=O)NO)CCN(C(=O)c3ccccc3)CC2)cc1 unit_abbreviation=nM reported_value=59
structure=Cc1cc(COc2ccc(S(=O)(=O)C3(C(=O)NO)CCN(S(=O)(=O)C(C)C)CC3)cc2)c2ccccc2n1 unit_abbreviation=nM reported_value=926
structure=Cc1cc(COc2ccc(S(=O)(=O)C3(C(=O)NO)CCN(C=O)CC3)cc2)c2ccccc2n1 unit_abbreviation=nM reported_value=440
structure=Cc1cc(COc2ccc(S(=O)(=O)C3(C(=O)NO)CCN(Cc4ccc(Cl)c(Cl)c4)CC3)cc2)c2ccccc2n1 unit_abbreviation=nM reported_value=80
structure=CC#CCOc1ccc(S(=O)(=O)CC2(C(=O)NO)CCNCC2)cc1 unit_abbreviation=nM reported_value=1900
structure=Cc1cc(COc2ccc(S(=O)(=O)C3(C(=O)NO)CCNCC3)cc2)c2ccccc2n1 unit_abbreviation=nM reported_value=8620
structure=Cc1cc(COc2ccc(S(=O)(=O)C3(C(=O)NO)CCN(C(=O)c4ccccc4)CC3)cc2)c2ccccc2n1 unit_abbreviation=nM reported_value=204
structure=CCN(CC)C(=O)N1CCC(C(=O)NO)(S(=O)(=O)c2ccc(OCc3cc(C)nc4ccccc34)cc2)CC1 unit_abbreviation=nM reported_value=57
structure=CC#CCOc1ccc(S(=O)(=O)C2(C(=O)NO)CCN(Cc3ccc(Cl)c(Cl)c3)CC2)cc1 unit_abbreviation=nM reported_value=72

----------
# TARGET_DESC: 72 kDa type IV collagenase (Homo sapiens)
# Sequence (P08253 whole entry, the tested form may be a part): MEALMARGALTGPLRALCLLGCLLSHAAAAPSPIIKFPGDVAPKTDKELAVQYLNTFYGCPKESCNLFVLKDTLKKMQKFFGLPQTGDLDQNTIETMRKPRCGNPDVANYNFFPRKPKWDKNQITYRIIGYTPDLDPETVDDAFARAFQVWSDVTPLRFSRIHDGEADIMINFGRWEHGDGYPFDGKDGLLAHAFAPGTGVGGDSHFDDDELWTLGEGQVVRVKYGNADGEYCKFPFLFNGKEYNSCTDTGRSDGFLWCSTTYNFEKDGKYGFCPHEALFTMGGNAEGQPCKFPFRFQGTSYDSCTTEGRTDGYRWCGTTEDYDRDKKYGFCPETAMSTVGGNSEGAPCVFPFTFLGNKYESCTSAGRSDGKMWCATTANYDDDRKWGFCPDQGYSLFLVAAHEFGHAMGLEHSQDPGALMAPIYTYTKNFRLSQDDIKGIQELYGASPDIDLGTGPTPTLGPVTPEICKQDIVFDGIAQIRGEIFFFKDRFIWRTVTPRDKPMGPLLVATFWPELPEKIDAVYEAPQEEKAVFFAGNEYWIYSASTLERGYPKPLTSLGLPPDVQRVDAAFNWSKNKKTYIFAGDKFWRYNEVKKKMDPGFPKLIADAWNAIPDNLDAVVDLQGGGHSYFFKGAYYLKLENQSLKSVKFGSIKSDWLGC
# ASSAY_OVERVIEW: inhibition of human recombinant MMP2 catalytic domain
pIC50: −log10 of the molar value.
So basically: pIC50 at 6 or higher? That is Fulfilled. Lower than 6? That is Not fulfilled.

structure=Cc1cc(COc2ccc(S(=O)(=O)C3(C(=O)NO)CCN(C(=O)OC(C)(C)C)CC3)cc2)c2ccccc2n1 class_assignment="Not fulfilled"
structure=CC#CCOc1ccc(S(=O)(=O)CC2(C(=O)NO)CCNCC2)cc1 class_assignment="Not fulfilled"
structure=Cc1cc(COc2ccc(S(=O)(=O)C3(C(=O)NO)CCN(C(=O)c4ccccc4)CC3)cc2)c2ccccc2n1 class_assignment=Fulfilled
structure=Cc1cc(COc2ccc(S(=O)(=O)C3(C(=O)NO)CCN(S(C)(=O)=O)CC3)cc2)c2ccccc2n1 class_assignment="Not fulfilled"
structure=CCN(CC)C(=O)N1CCC(C(=O)NO)(S(=O)(=O)c2ccc(OCc3cc(C)nc4ccccc34)cc2)CC1 class_assignment=Fulfilled
structure=Cc1cc(COc2ccc(S(=O)(=O)C3(C(=O)NO)CCN(C)CC3)cc2)c2ccccc2n1 class_assignment="Not fulfilled"

----------
# Species: Homo sapiens
# ASSAY_OVERVIEW: Selectivity ratio of IC50 for human recombinant MMP13 catalytic domain to IC50 for human TACE catalytic domain
Quick list: Ratio IC50 per entry.
RECORDED_METRIC: Ratio IC50

structure=Cc1cc(COc2ccc(S(=O)(=O)C3(C(=O)NO)CCN(C(=O)c4ccccc4)CC3)cc2)c2ccccc2n1 reported_value="> 90"
structure=CC#CCOc1ccc(S(=O)(=O)C2(C(=O)NO)CCNCC2)cc1 reported_value="< 10"
structure=Cc1cc(COc2ccc(S(=O)(=O)C3(C(=O)NO)CCN(S(=O)(=O)C(C)C)CC3)cc2)c2ccccc2n1 reported_value="> 90"
structure=Cc1cc(COc2ccc(S(=O)(=O)C3(C(=O)NO)CCN(C(=O)c4ccncc4)CC3)cc2)c2ccccc2n1 reported_value="> 90"
structure=Cc1cc(COc2ccc(S(=O)(=O)C3(C(=O)NO)CCN(S(C)(=O)=O)CC3)cc2)c2ccccc2n1 reported_value="> 90"
structure=Cc1cc(COc2ccc(S(=O)(=O)C3(C(=O)NO)CCN(C=O)CC3)cc2)c2ccccc2n1 reported_value="> 90"
structure=CC#CCOc1ccc(S(=O)(=O)C2(C(=O)NO)CCN(Cc3ccc(Cl)c(Cl)c3)CC2)cc1 reported_value="< 10"
structure=CC#CCOc1ccc(S(=O)(=O)C2(C(=O)NO)CCN(C(=O)OC(C)(C)C)CC2)cc1 reported_value="< 10"
structure=Cc1cc(COc2ccc(S(=O)(=O)C3(C(=O)NO)CCN(C)CC3)cc2)c2ccccc2n1 reported_value="> 90"
structure=Cc1cc(COc2ccc(S(=O)(=O)C3(C(=O)NO)CCN(C(=O)OC(C)(C)C)CC3)cc2)c2ccccc2n1 reported_value="> 90"
structure=CC#CCOc1ccc(S(=O)(=O)C2(C(=O)NO)CCN(C(=O)c3ccccc3)CC2)cc1 reported_value="< 10"
structure=CC#CCOc1ccc(S(=O)(=O)CC2(C(=O)NO)CCNCC2)cc1 reported_value="> 1000"
structure=CC(=O)N1CCC(C(=O)NO)(S(=O)(=O)c2ccc(OCc3cc(C)nc4ccccc34)cc2)CC1 reported_value="> 90"
structure=CCNC(=O)N1CCC(C(=O)NO)(S(=O)(=O)c2ccc(OCc3cc(C)nc4ccccc34)cc2)CC1 reported_value="> 90"
structure=Cc1cc(COc2ccc(S(=O)(=O)C3(C(=O)NO)CCN(C(=O)C(C)C)CC3)cc2)c2ccccc2n1 reported_value="> 90"
structure=Cc1cc(COc2ccc(S(=O)(=O)C3(C(=O)NO)CCNCC3)cc2)c2ccccc2n1 reported_value="> 90"
structure=CC#CCOc1ccc(S(=O)(=O)C2(C(=O)NO)CCN(C(C)=O)CC2)cc1 reported_value="< 10"
